The variants listed here are annotated with their polymerase ribozyme fitness (log ratio).
B1: TPR 5TU (parent)
chain: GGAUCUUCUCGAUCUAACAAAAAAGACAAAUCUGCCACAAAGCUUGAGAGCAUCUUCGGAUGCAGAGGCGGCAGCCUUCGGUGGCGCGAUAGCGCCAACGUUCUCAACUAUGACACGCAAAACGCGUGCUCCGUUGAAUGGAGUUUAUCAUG

variants of: B1; assay: polymerase ribozyme fitness, log enrichment relative to wild type (log ratio); higher = more active; in vitro selection for triplet polymerase activity
This sample holds only a part of the variants without activity.
REPORTED_PROPERTY: polymerase ribozyme fitness (log ratio)

1) C38U C87U A115U C125U	-3.34
2) G42C G86U	≤ -4.2
3) C27U G58C C87A A107U	≤ -4.2
4) C14A A17C C36A U44A U45A C54A C85G G88U C103G A110C	≤ -4.2
5) A21G G25U G50U C54U A73G C93A C108G C129G U135G	≤ -4.2
6) A17U A26C G62U U78G G100A G152U	≤ -4.2
7) A41C U77C G80A U102C U144G	≤ -4.2
8) A39C G42C C76A U144G	≤ -4.2
9) A22G A29U U77C C85G C95U C103U C114G C125U	≤ -4.2
10) A16U G133C U146A	-3.79
11) G25U U44G U45A U56A G80A C85U A97U	≤ -4.2
12) G34U A40G C72U C96G	≤ -4.2
13) U4A G65A C85U A97U	-2.2
14) C14A C75U	-1.84
15) C51G C125U U144C	-4.07
